Each record here notes measured Emax.
molecular target: Neurolysin, mitochondrial (Rattus norvegicus) (UniProt P42676); experiment: Activation of recombinant rat Nln assessed as maximal efficacy using MCA-Pro-Leu-Gly-Pro-D-Lys (DNP)-OH as substrate preincubated for 10 mins followed by substrate addition and measured after 20 mins by fluorescence based assay relative to control; details: filed as activator, time 30.0 min
Sequence (P42676 38-704 limits assumed): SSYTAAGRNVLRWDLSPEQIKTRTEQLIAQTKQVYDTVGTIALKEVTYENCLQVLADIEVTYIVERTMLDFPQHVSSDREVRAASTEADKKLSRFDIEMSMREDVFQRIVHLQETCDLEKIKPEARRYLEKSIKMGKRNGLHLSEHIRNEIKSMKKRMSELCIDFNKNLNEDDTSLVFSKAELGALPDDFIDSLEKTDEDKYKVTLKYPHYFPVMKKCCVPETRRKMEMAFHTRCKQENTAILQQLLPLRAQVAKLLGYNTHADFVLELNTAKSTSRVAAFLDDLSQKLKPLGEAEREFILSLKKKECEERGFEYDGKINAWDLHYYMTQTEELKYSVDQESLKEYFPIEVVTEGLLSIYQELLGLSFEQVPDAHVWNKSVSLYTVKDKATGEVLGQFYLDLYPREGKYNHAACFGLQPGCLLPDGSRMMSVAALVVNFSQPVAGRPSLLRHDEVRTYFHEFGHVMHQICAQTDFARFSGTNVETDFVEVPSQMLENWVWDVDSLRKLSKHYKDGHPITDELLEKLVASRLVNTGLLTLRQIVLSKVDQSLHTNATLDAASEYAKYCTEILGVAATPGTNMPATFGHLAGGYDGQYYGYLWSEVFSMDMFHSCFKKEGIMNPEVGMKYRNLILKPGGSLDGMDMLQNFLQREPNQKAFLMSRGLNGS
readout-kind: Emax

> print(dat)
                             compound.smiles                         system.under.test  reported.measurement
 1  N[C@H](Cc1c[nH]cn1)C(=O)Nc1ccc(C(F)(F)F)cc1  Neurolysin, mitochondrial (Rattus norvegicus) (UniProt P42676)                  325%
 2      N[C@H](Cc1c[nH]cn1)C(=O)Nc1ccc(F)cc1  Neurolysin, mitochondrial (Rattus norvegicus) (UniProt P42676)                  403%
 3  N[C@@H](Cc1c[nH]cn1)C(=O)Nc1c(F)cc(Br)cc1F  Neurolysin, mitochondrial (Rattus norvegicus) (UniProt P42676)                  370%
 4    COc1ccc(NC(=O)[C@@H](N)Cc2c[nH]cn2)cc1  Neurolysin, mitochondrial (Rattus norvegicus) (UniProt P42676)                  582%
 5  N[C@@H](Cc1c[nH]cn1)C(=O)Nc1cc(C(F)(F)F)cc(C(F)(F)F)c1  Neurolysin, mitochondrial (Rattus norvegicus) (UniProt P42676)                  633%
 6  N[C@@H](Cc1c[nH]cn1)C(=O)Nc1ccc(C(F)(F)F)cc1  Neurolysin, mitochondrial (Rattus norvegicus) (UniProt P42676)                  335%
 7  N[C@@H](Cc1c[nH]cn1)C(=O)Nc1cc(F)cc(F)c1  Neurolysin, mitochondrial (Rattus norvegicus) (UniProt P42676)                  431%
 8    COc1cccc(NC(=O)[C@@H](N)Cc2c[nH]cn2)c1  Neurolysin, mitochondrial (Rattus norvegicus) (UniProt P42676)                  454%
 9  N[C@@H](Cc1c[nH]cn1)C(=O)Nc1ccc(C(F)(F)F)cc1C(F)(F)F  Neurolysin, mitochondrial (Rattus norvegicus) (UniProt P42676)                  368%
10       COc1ccccc1NC(=O)[C@H](N)Cc1c[nH]cn1  Neurolysin, mitochondrial (Rattus norvegicus) (UniProt P42676)                  428%
11        N[C@H](Cc1c[nH]cn1)C(=O)Nc1ccccc1F  Neurolysin, mitochondrial (Rattus norvegicus) (UniProt P42676)                  331%
12     N[C@@H](Cc1c[nH]cn1)C(=O)Nc1cccc(F)c1  Neurolysin, mitochondrial (Rattus norvegicus) (UniProt P42676)                  382%
13  N[C@H](Cc1c[nH]cn1)C(=O)Nc1cccc(C(F)(F)F)c1  Neurolysin, mitochondrial (Rattus norvegicus) (UniProt P42676)                  362%
14      COc1ccccc1NC(=O)[C@@H](N)Cc1c[nH]cn1  Neurolysin, mitochondrial (Rattus norvegicus) (UniProt P42676)                  426%
15     COc1ccc(NC(=O)[C@H](N)Cc2c[nH]cn2)cc1  Neurolysin, mitochondrial (Rattus norvegicus) (UniProt P42676)                  540%
16       N[C@@H](Cc1c[nH]cn1)C(=O)Nc1ccccc1F  Neurolysin, mitochondrial (Rattus norvegicus) (UniProt P42676)                  268%
17  N[C@@H](Cc1c[nH]cn1)C(=O)Nc1cccc(C(F)(F)F)c1  Neurolysin, mitochondrial (Rattus norvegicus) (UniProt P42676)                  312%
18  COc1cc(NC(=O)[C@@H](N)Cc2c[nH]cn2)cc(OC)c1  Neurolysin, mitochondrial (Rattus norvegicus) (UniProt P42676)                  463%
19     COc1cccc(NC(=O)[C@H](N)Cc2c[nH]cn2)c1  Neurolysin, mitochondrial (Rattus norvegicus) (UniProt P42676)                  478%
20     N[C@@H](Cc1c[nH]cn1)C(=O)Nc1ccc(F)cc1  Neurolysin, mitochondrial (Rattus norvegicus) (UniProt P42676)                  488%
21  COc1cc(NC(=O)[C@@H](N)Cc2c[nH]cn2)cc(OC)c1OC  Neurolysin, mitochondrial (Rattus norvegicus) (UniProt P42676)                  436%
22      N[C@H](Cc1c[nH]cn1)C(=O)Nc1cccc(F)c1  Neurolysin, mitochondrial (Rattus norvegicus) (UniProt P42676)                  396%
